Reported logIC50 by item:
# TEST SUMMARY: Binding affinity to DNA (unknown origin) assessed as decrease in velocity of L1210 DNA-dependent DNA polymerase reaction
Enter the number alone.

Consider the following illustrative entries.
INSERT INTO measurements (compound, quantitative_readout) VALUES
  ('N=C(N)NN=C1C=CC(=NNC(=N)N)C=C1', 2.85),
  ('CCC(/C=N/NC(=N)N)=N\NC(=N)N.Cl', 2.87),
  ('C/C(=N\NC(=N)N)c1ccc(NC(=N)Nc2ccc(/C(C)=N/NC(=N)N)cc2)cc1', 1.6),
  ('C/C(=N\NC(=N)N)c1cccc(NC(=O)Nc2cccc(/C(C)=N/NC(=N)N)c2)c1', 1.6);

INPUT: Can you look up the measured logIC50 of Cl.N=C(N)N/N=C/c1ccc(/C=N/NC(=N)N)cc1 for me?
OUTPUT: 1.9

INPUT: // returns reported logIC50 for input C/C(=N\NC(=N)N)c1ccc(NC(=S)Nc2ccc(/C(C)=N/NC(=N)N)cc2)cc1
OUTPUT: 2.11

INPUT: // returns reported logIC50 for input N=C(N)c1ccc(/C=C/c2ccc(C(=N)N)cc2O)cc1 [HYDROXYSTILBAMIDINE]
OUTPUT: 1.6
